Hi there, I'd appreciate the recorded RUNX1 binding intensity for every entry that follows.
target: RUNX1 (UniProt Q01196); experiment: RUNX1 binding intensity (PBM fluorescence), RUNX1 alone (arbitrary fluorescence units); higher = stronger binding; details: RUNX1 concentration 2 nM; ETS1 concentration 0 nM
Sequence (Q01196 whole entry): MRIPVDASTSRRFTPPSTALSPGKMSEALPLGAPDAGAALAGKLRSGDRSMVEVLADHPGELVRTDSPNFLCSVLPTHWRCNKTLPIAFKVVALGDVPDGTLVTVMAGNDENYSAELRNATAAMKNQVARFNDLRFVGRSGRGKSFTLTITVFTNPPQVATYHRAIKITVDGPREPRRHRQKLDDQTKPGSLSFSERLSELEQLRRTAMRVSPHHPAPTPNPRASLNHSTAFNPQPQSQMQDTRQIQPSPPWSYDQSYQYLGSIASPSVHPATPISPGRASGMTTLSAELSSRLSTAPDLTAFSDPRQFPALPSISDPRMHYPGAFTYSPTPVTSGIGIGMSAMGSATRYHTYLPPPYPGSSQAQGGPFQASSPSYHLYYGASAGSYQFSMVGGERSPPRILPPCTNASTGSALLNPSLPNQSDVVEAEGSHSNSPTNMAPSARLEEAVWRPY
No unit in the answer, only the number.

Q: Write down the reported RUNX1 binding intensity (system: RUNX1 (UniProt Q01196)) of GGTAAAGCAACAGGATGTGGGTGTCTGACTTACAAT
Ans: 700

Q: Write down the reported RUNX1 binding intensity (system: RUNX1 (UniProt Q01196)) of TTTATCATGAATGCAGGATGTGGGCAAACTCGCATC
Ans: 749

Q: Write down the reported RUNX1 binding intensity (system: RUNX1 (UniProt Q01196)) of GTGCTAGGACACAGGAAGCGATACCACAAAGAACAT
Ans: 818

Q: Write down the reported RUNX1 binding intensity (system: RUNX1 (UniProt Q01196)) of CTTAGGACTTCCCGTAGATGGTGGTCTGTGCTAAGG
Ans: 706

Q: Write down the reported RUNX1 binding intensity (system: RUNX1 (UniProt Q01196)) of GAAGTCACTCAGGGAGGAAACCACAGGGCCGGTCCG
Ans: 880

Q: Write down the reported RUNX1 binding intensity (system: RUNX1 (UniProt Q01196)) of CTCAGGTTATCTAGGAAATCTACCGCACGCTAAAGT
Ans: 858

Q: Write down the reported RUNX1 binding intensity (system: RUNX1 (UniProt Q01196)) of CCCGCTACACAAGGCGGATGTGGTACCCTCACTTGT
Ans: 891

Q: Write down the reported RUNX1 binding intensity (system: RUNX1 (UniProt Q01196)) of AGCAACAGGAAAGAACAGCCTGACCACAGCAGCCAC
Ans: 948

Q: Write down the reported RUNX1 binding intensity (system: RUNX1 (UniProt Q01196)) of TCCTCCATGCAGGAAAACCTCTGTGGTCTGGGAGCT
Ans: 867

Q: Write down the reported RUNX1 binding intensity (system: RUNX1 (UniProt Q01196)) of TTTACTGAGAGGAAGTGGTTCTTGTGGGTGAAGGTC
Ans: 898

Q: Write down the reported RUNX1 binding intensity (system: RUNX1 (UniProt Q01196)) of ATGGCGGAGCGGAAGTCCCAGCCACAACGCGAAAAG
Ans: 782

Q: Write down the reported RUNX1 binding intensity (system: RUNX1 (UniProt Q01196)) of TTTCTTCTGATCTTCCTCCCCGCACGTCTGCACAGG
Ans: 1220

###

Hi there, I'd appreciate the recorded ETS1 binding intensity for every entry that follows.
Target: ETS1 (UniProt P14921)
Sequence: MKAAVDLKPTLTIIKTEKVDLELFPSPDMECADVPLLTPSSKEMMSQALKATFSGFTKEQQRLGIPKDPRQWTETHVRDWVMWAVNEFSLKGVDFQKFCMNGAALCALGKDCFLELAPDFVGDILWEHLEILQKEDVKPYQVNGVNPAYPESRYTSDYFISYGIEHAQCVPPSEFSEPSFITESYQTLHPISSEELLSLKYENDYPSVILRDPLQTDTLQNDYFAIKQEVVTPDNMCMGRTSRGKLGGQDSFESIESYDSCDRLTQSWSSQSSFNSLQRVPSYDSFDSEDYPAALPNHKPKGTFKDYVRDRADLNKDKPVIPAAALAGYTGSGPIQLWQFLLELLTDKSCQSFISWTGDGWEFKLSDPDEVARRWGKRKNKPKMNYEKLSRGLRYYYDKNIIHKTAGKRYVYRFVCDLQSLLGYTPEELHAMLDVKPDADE
Experiment: ETS1 binding intensity (PBM fluorescence), ETS1 alone (arbitrary fluorescence units); higher = stronger binding
Conditions: ETS1 concentration 1 nM; RUNX1 concentration 0 nM
No unit in the answer, only the number.

Q: For the sequence GGTGTTAGTAGTCAAGGAAGTGGTCACCCTTGACAG , report ETS1 binding intensity.
Ans: 1010

Q: For the sequence ATCTTACCCCGGAAATGACAACAGTGCCGCAAACTG , report ETS1 binding intensity.
Ans: 7580

Q: For the sequence TCAGGGGAGCGAGCAGGAAGTGGTAAGATTTGATAG , report ETS1 binding intensity.
Ans: 3680

Q: For the sequence TGGACGTAACACTCAGGAAGTGGTCAACCTTGCTGC , report ETS1 binding intensity.
Ans: 2630

Q: For the sequence TGACATTTCCGGCCCCACCTCGGCCCGCAGCGCCGC , report ETS1 binding intensity.
Ans: 1180

Q: For the sequence TGAGGAGAGCGAGGAAGTGGTTTTCTCTTCGCACAG , report ETS1 binding intensity.
Ans: 691

Q: For the sequence ATCAGAGCGGAAATCTCAGTCTTGTGTGGGGACCTG , report ETS1 binding intensity.
Ans: 1960

Q: For the sequence GTTCCTTTGAAAGCAGGATGTGGTTTGCCCCAGCTT , report ETS1 binding intensity.
Ans: 5390

Q: For the sequence CCTGCAGCAACAGGATGTGGTTTGAAAGGATGAAAG , report ETS1 binding intensity.
Ans: 7250

Q: For the sequence CTGGTAGAAAAGGAAGCAGGTTGTGGTGAGCATTTA , report ETS1 binding intensity.
Ans: 837

Q: For the sequence GTTTCATGTTAAGTAGGATGTGGTCAGTTAGCTTCG , report ETS1 binding intensity.
Ans: 851

Q: For the sequence GCCCCTAAACCGGATGCGGCAGCCACCGCGGACCCC , report ETS1 binding intensity.
Ans: 9010
